# Test system: HS 578T breast
# measurement.description: NCI tumour cell line growth inhibition, 48 h
Each item that follows carries a reported TGI.

Field: example entries. Status: answers known.
molecule	TGI
COc1cccc2c1O/C(=C\c1ncc([N+](=O)[O-])n1C)C2=O	> 21 µM
COc1cc2c(cc1OCCCN1CCN(C)CC1)N=C[C@@H]1CCCN1C2=O	> 100 µM
C=C1c2nc3ccccc3n2C=C(c2ccc(C)cc2)N1c1ccccc1	> 30.6 µM
Cc1ccc(NC(=O)CC(=O)N2N=C(N(C)c3ccccc3)CC2c2ccccc2)cc1 (stereo not given)	> 100 µM

# lookup: TGI of COc1cc([C@@H]2c3cc4c(cc3[C@@H](OC3OC5CO[C@@H](c6cccs6)OC5C(O)C3O)[C@H]3COC(=O)[C@H]23)OCO4)cc(OC)c1O (stereo not given in full)
4.71 µM

----------
# Test system: MALME-3M melanoma
# measurement.description: NCI tumour cell line growth inhibition, 48 h; in the data active = GI50 below about 0.43 µM; inactive = the rest
Log the outcome using a class from active, inactive

Please review the entries below; each comes with its answer.
compound	study.system	label.value
COc1cccc2c1O/C(=C\c1ncc([N+](=O)[O-])n1C)C2=O	MALME-3M melanoma	active
CC1(C)CC[C@]2(C(=O)Nc3ccccn3)CC[C@]3(C)C(=CC[C@@H]4[C@@]5(C)C/C(=C/c6ccncc6)C(=O)C(C)(C)[C@@H]5CC[C@]43C)[C@@H]2C1	MALME-3M melanoma	inactive
COc1ccc2c(c1OC)-c1c(c3ccc([N+](=O)[O-])cc3c(=O)n1CCCN)C2=O	MALME-3M melanoma	inactive
Cc1ccc(CN(C)c2ccc(CO)c(Cl)c2)cc1	MALME-3M melanoma	inactive
C=C1C(O)C2C(=C(CCC3CC3)C13CC3)C(=O)C(C)(C)C2O (stereo unspecified)	MALME-3M melanoma	inactive

Proceed to the following item.
# outcome recorded in this test, key = `C[CH2][Pb]([CH2]C)([CH2]C)[O]C(=O)COC`
active

----------
# System: EKVX NSCLC
# measurement.description: NCI tumour cell line growth inhibition, 48 h
observable: GI50

Field: example entries. Status: answers known.
structure.smiles	measurement
S=C(S)N1CCCCC1	46.5 µM
CCCN1C/C(=C\c2ccc(O)c(OC)c2)C(=O)/C(=C/c2ccc(O)c(OC)c2)C1	> 100 µM
COc1cc2cnc3c(c2c(OC)c1OC)Cc1cc2c(cc1-3)OCO2	7.54 µM
O=C(CN(/C=C/C(=O)C(F)(F)F)c1ccc(Cl)cc1)c1ccc(F)cc1	19.2 µM
Nc1nc2cc(O)ccc2n2cc3c(F)cccc3c12	3.38 µM
Cc1cc2cn3c4ccc(O)cc4nc(N)c3c2cc1C	0.794 µM
N#C/C(=C\c1ccc(Br)cc1)n1nnc2c(F)cccc21	1.75 µM
CCOC(=O)/C(C#N)=C\C=C(\Sc1nc2ccccc2s1)c1ccc(Cl)cc1	14.8 µM

# lookup: GI50 of `COc1ccc(C(=S)N(C)NC(=O)CC(=O)NN(C)C(=S)c2ccc(OC)cc2)cc1`
32 µM

# lookup: GI50 of `CC1(C)CC[C@]2(C(=O)Nc3ccccn3)CC[C@]3(C)C(=CC[C@@H]4[C@@]5(C)C/C(=C/c6ccncc6)C(=O)C(C)(C)[C@@H]5CC[C@]43C)[C@@H]2C1`
3.8 µM

----------
# Tested on: HT29 colon
# measurement.description: NCI tumour cell line growth inhibition, 48 h
observable: TGI (µM)
Numbers only here, please. The scale is µM.

Field: example entries. Status: answers known.
molecule	study.system	measurement
Cc1cc(N(CCC#N)CCC#N)ccc1/C=N/NC(=O)c1ccccc1	HT29 colon	14.2
CN(C)CC1CC/C(=C\c2ccc(Cl)cc2)C1=O (centres undefined)	HT29 colon	23.7
CN(C)c1ccc(/C=C2\C[C@H]3[C@@H]4CC=C5C[C@@H](O)CC[C@]5(C)[C@H]4CC[C@]3(C)C2=O)cc1	HT29 colon	56.2

# lookup: TGI of C=CCCCCNC(=O)C[C@@H]1C2=C(CC[C@H]1O[Si](C)(C)C(C)(C)C)N1C(=O)CCC/C=C\C1C2 (some centres undefined)
24.7

----------
Each item that follows carries a reported TGI.
# Tested on: OVCAR-4 ovarian
# measurement.description: NCI tumour cell line growth inhibition, 48 h
Numbers only here, please. The scale is µM.

molecule	units.label	TGI
C[CH2][Sn]([CH2]C)([O]C(=O)c1c(F)cccc1F)[O][Sn]([CH2]C)([CH2]C)[O]C(=O)c1c(F)cccc1F	µM	33

# lookup: TGI of `COc1ccc(-c2ccc(-c3ccc(C(=N)N)c(F)c3)s2)cc1`
0.868

# lookup: TGI of COc1ccc(C2C=C(c3ccc(OC)c(OC)c3)N=C3SC=CN32)c(Br)c1 (configuration not stated)
49.4

# lookup: TGI of `O=C1/C=C/[C@@H](O)[C@@H]2C[C@@H](O)C[C@H]2/C=C/CCC[C@H](CCc2ccccc2)O1`
9.48

# lookup: TGI of `COC(=O)c1cnc(Cl)c([N+](=O)[O-])c1`
36.6

----------
Each item that follows carries a reported TGI.
# System: RPMI-8226 leukemia
# measurement.description: NCI tumour cell line growth inhibition, 48 h

Field: example entries. Status: answers known.
compound	TGI
O=C(NC(O)(C(F)(F)F)C(F)(F)F)c1ccccc1	> 100 µM
COC1/C(=C\c2ccccc2I)c2ccccc2N1C(C)=O (stereo not given)	39.1 µM
CC1(C)Oc2ccccc2OC1O (stereo not given)	> 100 µM
CCN(CC)CCN1C(=O)CC2[C@@H]3CCc4cc(OC)ccc4C3CC[C@]2(C)C1=O (stereo not given in full)	66 µM
CC1CC2(OC2C)C(=O)OC2CCN(C)C/C=C(/COC(=O)C1(C)O)C2=O (stereo not given)	> 100 µM

# lookup: TGI of C#CC[C@@H]1C[C@]2(C)[C@H]3CC[C@@H]4[C@H]5C(C(=C)C)CC[C@]5(C(=O)NCCCCN)CC[C@@]4(C)[C@]3(C)CC[C@H]2C(C)(C)[C@H]1OC(C)=O (stereo not given in full)
5.06 µM

# lookup: TGI of O=[N+]([O-])c1ccc(C2CC(c3ccc(NCc4nc5ccccc5[nH]4)cc3)=NO2)cc1 (stereo not given)
> 100 µM

# lookup: TGI of CCC(N)(C(=O)O)C(C)C (stereo not given)
> 100 µM

# lookup: TGI of `CC(=O)N1CCC(Nc2ncc3cc(Oc4ccc(F)cc4F)c(=O)n(C)c3n2)CC1`
> 25 µM

# lookup: TGI of `CCOC(=O)[C@H]1Nc2ccc(Cl)cc2[C@H]2CCC[C@@H]12`
> 100 µM

# lookup: TGI of `CCOc1ccc(NC(=O)/C(=C\c2ccc(C)cc2)C(C)=O)cc1`
> 100 µM

# lookup: TGI of CC1OC(n2cc(Cl)c(=O)[nH]c2=O)C=C(OC(=O)c2ccccc2)C1=O (stereo not given)
> 100 µM

----------
# Tested on: MDA-MB-435
Log the outcome using a class from True = active, False = inactive

Please review the entries below; each comes with its answer.
molecule	label.value
COc1cccc2c1O/C(=C\c1ncc([N+](=O)[O-])n1C)C2=O	True
COc1cc(-c2nn(-c3cccc(NC(=O)Nc4cccc(C(F)(F)F)c4)c3)cc2-c2ccncc2)ccc1Cl	False
CC(=O)N1CCC(Nc2ncc3cc(Oc4ccc(F)cc4F)c(=O)n(C)c3n2)CC1	False

# outcome recorded in this test, key = C=C1C(O)C2C(=C(CCC3CC3)C13CC3)C(=O)C(C)(C)C2O (stereo not given)
False

# outcome recorded in this test, key = `CN(C)CCONC(=O)C12CC3CC(CC(C3)C1)C2`
False

# outcome recorded in this test, key = `O=c1ccccc(-c2ccc(Br)cc2)c1O`
True

# outcome recorded in this test, key = `COc1ccc(/C=C2\COc3ccc(O)c(O)c3C2=O)cc1`
True

# outcome recorded in this test, key = `COc1ccc2c(c1OC)-c1c(c3ccc([N+](=O)[O-])cc3c(=O)n1CCCN)C2=O`
False

# outcome recorded in this test, key = `Clc1ccc(Cn2c(CN3CCCC3)nc3ccccc32)cc1`
False

# outcome recorded in this test, key = `S=C(S)N1CCCCC1`
False

# outcome recorded in this test, key = `[2H]c1nc(C)nc([2H])c1-c1cc(NC[C@@H](C)c2cccc3c(C(=O)NC)ccnc23)ncn1`
False

# outcome recorded in this test, key = `COc1ccc(C(=O)c2sc3nc4c(cc3c2N)CCCC4)cc1OC`
False

# outcome recorded in this test, key = O=C1C=CC2(O)OC/C(=C\c3ccccc3)C(O)=C2C1=O (stereo not given)
False

# outcome recorded in this test, key = `Cn1c(-c2ccncc2)c(-c2ccc(F)cc2)c2ncccc21`
False

# outcome recorded in this test, key = `COc1cc(/C=C/C(=O)c2ccccc2)cc(OC)c1OC`
False

The measurements presented in this section are drawn from PubChem BioAssay (NCI).
